System: ATP;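 further: ATP exposure 15 min at 22 °C before imaging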
Experiment: switch fluorescence ratio, 500 uM ATP over buffer (Cy3 cluster intensity, sum of 5 cycles each) (fold (ratio)); higher = stronger signal-on switching upon ATP binding; sequences stand for … in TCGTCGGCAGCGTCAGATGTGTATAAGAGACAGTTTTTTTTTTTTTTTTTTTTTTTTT…TC
Settings: aptamer strand: ATP DNA aptamer (quencher-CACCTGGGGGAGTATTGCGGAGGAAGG + anchor), 100 nM annealed; ATP concentration: 500 uM
readout: switch fluorescence ratio
Keep it simple and answer with nothing but the number.

Before answering, review these 5 worked examples.
| item_sequence | assay_system | quantitative_readout |
| --- | --- | --- |
| AACTTTAGGG | ATP | 0.997 |
| TCCATTTTTT | ATP | 0.992 |
| GTGGTGTGTT | ATP | 1.05 |
| CAAGTTGTAC | ATP | 1.1 |
| CGATAGGCAA | ATP | 1.66 |

Need switch fluorescence ratio of CGTGTGGGGT , thanks. 1.01

Need switch fluorescence ratio of GAGATCCATG , thanks. 1.01

Need switch fluorescence ratio of AGGTACCGTT , thanks. 1.03

Need switch fluorescence ratio of TTTTATTGCG , thanks. 0.995

###

Tested on: ATP;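 further: ATP exposure 15 min at 22 °C before imaging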
Assay: switch fluorescence ratio, 500 uM ATP over buffer (Cy3 cluster intensity, sum of 5 cycles each) (fold (ratio)); higher = stronger signal-on switching upon ATP binding; sequences stand for … in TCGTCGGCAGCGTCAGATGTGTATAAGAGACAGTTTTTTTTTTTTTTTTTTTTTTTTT…TC
Details: aptamer strand: ATP DNA aptamer (quencher-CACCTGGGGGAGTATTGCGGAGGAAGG + anchor), 100 nM annealed; ATP concentration: 500 uM
readout: switch fluorescence ratio
Keep it simple and answer with nothing but the number.

Need switch fluorescence ratio of ACCCGATTGC , thanks. 1.29

Need switch fluorescence ratio of ATGTAATAGC , thanks. 0.989

Need switch fluorescence ratio of GCCCTTTTTT , thanks. 1

Need switch fluorescence ratio of TAGGGTGCTA , thanks. 1

Need switch fluorescence ratio of TGGTTGAGGG , thanks. 1.01

Need switch fluorescence ratio of GTGTAGGGGA , thanks. 1

Need switch fluorescence ratio of GGAGGGGATG , thanks. 0.981

Need switch fluorescence ratio of TAATTCAGGG , thanks. 1.03

Need switch fluorescence ratio of TGGGGAGGCT , thanks. 1.04

Need switch fluorescence ratio of GGGGTCTACC , thanks. 0.974

Need switch fluorescence ratio of TTGGCAGGGG , thanks. 1.06

Need switch fluorescence ratio of AACTTTTTAA , thanks. 1.01

Need switch fluorescence ratio of ATATTGATGT , thanks. 1.01

Need switch fluorescence ratio of GGGGCGGGAA , thanks. 0.982

###

System: ATP;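 further: ATP exposure 15 min at 22 °C before imaging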
Assay: switch fluorescence ratio, 500 uM ATP over buffer (Cy3 cluster intensity, sum of 5 cycles each) (fold (ratio)); higher = stronger signal-on switching upon ATP binding; sequences stand for … in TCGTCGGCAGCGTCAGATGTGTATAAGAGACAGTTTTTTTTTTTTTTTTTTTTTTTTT…TC
Conditions: aptamer strand: ATP DNA aptamer (quencher-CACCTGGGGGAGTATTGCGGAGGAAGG + anchor), 100 nM annealed; ATP concentration: 500 uM
readout: switch fluorescence ratio
Keep it simple and answer with nothing but the number.

| item_sequence | readout | quantitative_readout |
| --- | --- | --- |
| GTGTAAGATG | switch fluorescence ratio | 1 |
| GTGTTTAGTG | switch fluorescence ratio | 0.979 |

Could you now look at the following sequence, please?
Need switch fluorescence ratio of TTGGGTTATG , thanks. 1

###

Tested on: ATP;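 further: ATP exposure 15 min at 22 °C before imaging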
Assay: switch fluorescence ratio, 500 uM ATP over buffer (Cy3 cluster intensity, sum of 5 cycles each) (fold (ratio)); higher = stronger signal-on switching upon ATP binding; sequences stand for … in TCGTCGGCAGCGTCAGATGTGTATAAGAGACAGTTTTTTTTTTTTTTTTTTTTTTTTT…TC
Settings: aptamer strand: ATP DNA aptamer (quencher-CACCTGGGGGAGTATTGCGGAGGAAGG + anchor), 100 nM annealed; ATP concentration: 500 uM
readout: switch fluorescence ratio
Keep it simple and answer with nothing but the number.

Before answering, review these 10 worked examples.
| item_sequence | switch fluorescence ratio |
| --- | --- |
| TCGTAACACT | 1.16 |
| TTTCATTATC | 1.02 |
| CTAGCCAATT | 1.02 |
| TAACTTCGTG | 1.01 |
| ATGGGAGGGC | 0.97 |
| GAGTCTGTCC | 1.02 |
| CCGGGGTCCG | 1.13 |
| TTAATAAATG | 1 |
| GAATTAGAAA | 0.999 |
| GGGTCATGGG | 0.989 |

Need switch fluorescence ratio of TGATGGGTAT , thanks. 1

Need switch fluorescence ratio of CGGGGGAGCA , thanks. 1.01

Need switch fluorescence ratio of ATTGAGGCAA , thanks. 1.22

Need switch fluorescence ratio of TCGGGGATAT , thanks. 3.05

Need switch fluorescence ratio of AAAAATTATT , thanks. 1.01

Need switch fluorescence ratio of GCGTTCGGGA , thanks. 0.984

Need switch fluorescence ratio of TTTCAAACCC , thanks. 0.995

Need switch fluorescence ratio of CGGTACACGT , thanks. 1.02

Need switch fluorescence ratio of TTTTATAGAC , thanks. 1.04

Need switch fluorescence ratio of TCGGTGTCGC , thanks. 0.962

Need switch fluorescence ratio of TGGGGAGAAA , thanks. 1

Need switch fluorescence ratio of CGCTTGTCAC , thanks. 1.18

Need switch fluorescence ratio of TATTATTTGT , thanks. 0.994

Need switch fluorescence ratio of GTTTTCGGGG , thanks. 1.04

Need switch fluorescence ratio of TATTCAAGTT , thanks. 1

Need switch fluorescence ratio of TACTTAATGT , thanks. 1.03

Need switch fluorescence ratio of TGGAGAGGAT , thanks. 0.983

###

Test system: ATP;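 further: ATP exposure 15 min at 22 °C before imaging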
Assay: switch fluorescence ratio, 500 uM ATP over buffer (Cy3 cluster intensity, sum of 5 cycles each) (fold (ratio)); higher = stronger signal-on switching upon ATP binding; sequences stand for … in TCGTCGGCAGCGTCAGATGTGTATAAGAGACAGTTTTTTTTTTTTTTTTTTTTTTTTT…TC
Details: aptamer strand: ATP DNA aptamer (quencher-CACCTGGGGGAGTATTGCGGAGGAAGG + anchor), 100 nM annealed; ATP concentration: 500 uM
readout: switch fluorescence ratio
Keep it simple and answer with nothing but the number.

Before answering, review these 5 worked examples.
| item_sequence | readout | quantitative_readout |
| --- | --- | --- |
| GGTTTGTAGG | switch fluorescence ratio | 0.954 |
| GGTGGGGT | switch fluorescence ratio | 1.01 |
| GCGGGGAAAT | switch fluorescence ratio | 0.971 |
| CGGTTTACGG | switch fluorescence ratio | 0.986 |
| TTGGGTATTG | switch fluorescence ratio | 0.966 |

Need switch fluorescence ratio of TATCAAAGGT , thanks. 1.01

Need switch fluorescence ratio of TTTTGGTCTC , thanks. 0.985

Need switch fluorescence ratio of CTTAGGGCGA , thanks. 0.973

Need switch fluorescence ratio of TGAAAGGGGG , thanks. 0.99

Need switch fluorescence ratio of TTTGAGGGGC , thanks. 0.995

Need switch fluorescence ratio of TTTTGGGGTC , thanks. 1.02

Need switch fluorescence ratio of AGGGCCAAGT , thanks. 0.997

Need switch fluorescence ratio of TAGTGAAGTC , thanks. 1.02

Need switch fluorescence ratio of CAACTCCGGA , thanks. 1.2

Need switch fluorescence ratio of GATAAATGAT , thanks. 1

Need switch fluorescence ratio of AGTTAATTTG , thanks. 0.982

Need switch fluorescence ratio of AGCGGTAGGG , thanks. 1.02

Need switch fluorescence ratio of TCACCAGGTA , thanks. 2.16

Need switch fluorescence ratio of AAGGTGTTTT , thanks. 1.08

Need switch fluorescence ratio of TCATTCAACT , thanks. 1

Need switch fluorescence ratio of TCGGGGAGAA , thanks. 0.992

Need switch fluorescence ratio of AAGTAAAGCT , thanks. 1.11

Need switch fluorescence ratio of TTTTTGGTCT , thanks. 0.997

Need switch fluorescence ratio of TAGTTGACAA , thanks. 0.99

Need switch fluorescence ratio of GCGGCGGGTT , thanks. 1.04

###

System: ATP;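 further: ATP exposure 15 min at 22 °C before imaging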
Experiment: switch fluorescence ratio, 500 uM ATP over buffer (Cy3 cluster intensity, sum of 5 cycles each) (fold (ratio)); higher = stronger signal-on switching upon ATP binding; sequences stand for … in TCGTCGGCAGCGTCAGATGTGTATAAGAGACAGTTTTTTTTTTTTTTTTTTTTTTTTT…TC
Conditions: aptamer strand: ATP DNA aptamer (quencher-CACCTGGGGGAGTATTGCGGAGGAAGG + anchor), 100 nM annealed; ATP concentration: 500 uM
switch fluorescence ratio listing for selected sequences.
Keep it simple and answer with nothing but the number.

| item_sequence | readout | quantitative_readout |
| --- | --- | --- |
| TTTTTATAGT | switch fluorescence ratio | 1.02 |
| TAGGGGGGGT | switch fluorescence ratio | 1 |
| TGGATACCCT | switch fluorescence ratio | 1.01 |
| TTCAAATTGG | switch fluorescence ratio | 1 |
| TCCCATTTTT | switch fluorescence ratio | 1.01 |
| TATGTCATGT | switch fluorescence ratio | 1.02 |

Need switch fluorescence ratio of ACTATGGCTG , thanks. 0.957

Need switch fluorescence ratio of ACAGCGCCGG , thanks. 1.02
